Test system: P388 leukemia ip, CD2F1 mice, survival T/C
Assay: NCI In Vivo Anticancer Drug Screen. Data for tumor model P388 Leukemia (intraperitoneal) in CD2F1 (CDF1) mice
Details: endpoint: median survival time; dose: 200.0 mg/kg/injection; schedule: Q04DX003 (ip); vehicle: saline; higher = longer survival
Protocol: The antitumor activity of compounds was measured in mice bearing transplantable tumors. Survival or tumor size were measured and the results are expressed as the measurement made in the treated group (T) divided by the measurement made in the vehicle treated control group (C). The tumor model used in this assay is P388 Leukemia (intraperitoneal) in CD2F1 (CDF1) mice
Inconclusive results and toxic doses are left out.
measured endpoint: T/C

Worked cases, answers included:
                                   molecule  measured_endpoint               val
0                    CS(C)(=O)=Nc1ccc(I)cc1                T/C  100 % of control
1        OCc1ccc(OCc2ccccc2)c(OCc2ccccc2)c1                T/C  104 % of control
2  O=C(O)C(Cl)Cc1cnc[nH]1 (stereo not drawn)                T/C   91 % of control
3      Cc1cc(C)n(-c2ccc([N+](=O)[O-])cn2)n1                T/C   96 % of control
4  CS(C)=O.CS(C)=O.CS(C)=O.CS(C)=O.[Cl][Ru][Cl]                T/C   99 % of control
5             CCOC(=O)NC(NC(=O)OCC)c1cccnc1                T/C   94 % of control
6  Cc1cc(NC(=O)Nc2ccc(C3=NCCN3)cc2)ccc1NC(=O)Nc1ccc(C2=NCCN2)cc1                T/C  104 % of control

Looking up CC1=CCC(C(C)C)C=C1 (stereo not drawn) , I found its T/C recorded as 100 % of control

---

System: P388 leukemia ip, CD2F1 mice, survival T/C
Test: NCI In Vivo Anticancer Drug Screen. Data for tumor model P388 Leukemia (intraperitoneal) in CD2F1 (CDF1) mice
Conditions: endpoint: median survival time; dose: 100.0 mg/kg/injection; schedule: Q01DX009 (ip); vehicle: Klucel (hydroxypropylcellulose) (HPC); higher = longer survival
Toxic doses and inconclusive results are not listed.
measured endpoint: T/C

In [3]: df
Out[3]:
                                   compound              val
0  Cc1[nH]c2c(-c3ccccc3)c3cc(Cl)ccc3nc2c1C(=O)O  86 % of control

Looking up CC1(C)CCCC(C)(C2CCC3(C)C2C(O)CC2C4(C)CCC(O)C(C)(C)C4C(O)CC23C)O1 (configuration not stated) , I found its T/C recorded as 92 % of control

Looking up COc1ccc(C2=[N+]([O-])C(C)(C)C(c3ccccc3)C2)cc1 (configuration not stated) , I found its T/C recorded as 101 % of control

Looking up `Oc1cccc(/C=N/N=C/c2cccc(O)c2O)c1O` , I found its T/C recorded as 93 % of control

Looking up `CCC1(c2ccccc2)C(=O)N(CCCl)C(=O)N(CCCl)C1=O` , I found its T/C recorded as 92 % of control

Looking up CN1c2c(nc(N)[nH]c2=O)NCC1CCNc1ccc(C(=O)NC(CCC(=O)O)C(=O)O)cc1 (configuration not stated) , I found its T/C recorded as 124 % of control
